system: Rhizoctonia oryzae; assay: Test G: turf brown patch, preventive spray on creeping bent grass seedlings, visual disease rating; format: in vivo; details: 200 ppm, 100 = 100% disease control, 0 = no control
Measured Quantity: Test G rating (% disease control) (%)
Your answer is read as %, so omit the unit and give the number.

Consider the following illustrative entries.
> print(dat)
                                   molecule                  measured.quantity  unit.abbreviation  value.measured
1  COc1cc(OC)cc(-c2c(C(C)(C)O)c[n+]([O-])c(C)c2-c2ccccc2)c1 [Compound 52]  Test G rating (% disease control)                  %               0
2  COc1cc(OC)cc(-c2c(C(C)=O)cnc(C)c2-c2ccccc2F)c1 [Compound 17]  Test G rating (% disease control)                  %              60

Attention now turns to another entry.
Looking up C=C(C)c1cnc(C)c(-c2c(F)cc(F)cc2F)c1-c1cc(OC)cc(OC)c1 [Compound 43] , I see its Test G rating (% disease control) listed as 100

----------
test system: Erysiphe graminis f. sp. tritici; test: Test A: wheat powdery mildew, preventive spray on wheat seedlings, visual disease rating; assay type: in vivo; conditions: 40 ppm (compound number followed by *)
Here the recorded Test A rating (% disease control) is given for each entry.
Just so you know, I need the unit written after the number.

Here are 10 compounds together with their reported answers.
> print(dat)
                                    compound                  measured.quantity  value.measured
 1  COc1cc(OC)cc(-c2c(C)cnc(C)c2-c2c(F)cc(F)cc2F)c1  Test A rating (% disease control)             99%
 2  COc1cc(OC)cc(-c2c(-c3ccc(Cl)nc3)cnc(C)c2-c2c(F)cc(F)cc2F)c1  Test A rating (% disease control)             90%
 3  COc1cc(OC)cc(-c2c(-c3cnc(OC)nc3OC)cnc(C)c2-c2c(F)cc(F)cc2F)c1  Test A rating (% disease control)              0%
 4  COc1cc(OC)cc(-c2c(-c3ccccc3)cnc(C)c2-c2ccccc2F)c1  Test A rating (% disease control)             96%
 5  COc1cc(OC)cc(-c2c(-c3c(F)cccc3F)cnc(Cl)c2-c2c(F)cccc2F)c1  Test A rating (% disease control)              0%
 6  COc1cc(OC)cc(-c2c(C(C)CO)cnc(C)c2-c2c(F)cccc2F)c1 (centres unmarked)  Test A rating (% disease control)              0%
 7  C=C(C)c1cnc(C)c(-c2c(F)ccc(F)c2F)c1-c1cc(OC)cc(OC)c1  Test A rating (% disease control)            100%
 8  COc1cc(OC)cc(-c2c(C=O)cnc(C)c2-c2c(F)ccc(OC)c2F)c1  Test A rating (% disease control)              0%
 9  COc1cc(OC)c(Cl)c(-c2c(C(C)=O)cnc(C)c2-c2c(F)cc(F)cc2F)c1  Test A rating (% disease control)            100%
10  COc1cc(OC)cc(-c2c(Cn3cc(C#N)cn3)cnc(C)c2-c2c(F)cc(F)cc2F)c1  Test A rating (% disease control)              0%

Kindly note the recorded Test A rating (% disease control) for COc1cc(OC)cc(-c2c(C(C)CO)cnc(C)c2-c2c(F)cc(OC)cc2F)c1 (centres unmarked) , which is 76%

Reported Test A rating (% disease control) ( COc1cc(OC)cc(-c2c(-c3ccccc3)cnc(C)c2-c2c(F)cccc2F)c1 ) = 98%

Documented Test A rating (% disease control) of COc1cc(OC)cc(-c2c(C3CCCC3)cnc(C)c2-c2c(F)cccc2F)c1 : 100%

Reported Test A rating (% disease control) ( COc1cc(OC)c(Cl)c(-c2c(-c3ccccc3F)cnc(C)c2-c2ccc(F)cc2)c1 ) = 90%
